Each record here notes measured CC50 at 96 h.
assay: Cytotoxicity against human MT2 cells after 4 days by XTT assay; format: cell-based
Give a bare numeral; the unit µM is implied.

Some solved entries appear below for comparison.
>>> test_value("O=C(O)c1cccc(-c2ccc(/C=C3\\SC(=S)N(CCc4ccccc4)C3=O)o2)c1O")
16.4
>>> test_value("O=C(O)c1cccc(-c2ccc(/C=C3\\SC(=S)N(CCc4ccccc4)C3=O)o2)c1Cl")
30.4

Entry under review: `O=C(O)c1cccc(-c2ccc(/C=C3\SC(=S)N(CCc4ccccc4)C3=O)o2)c1F` . Reported CC50 at 96 h? 28.1
